TARGET UNDER TEST: IFN-gamma (Homo sapiens, UniProt P01579 P01579:24-161)
Sequence (P01579 24-161, one chain of several): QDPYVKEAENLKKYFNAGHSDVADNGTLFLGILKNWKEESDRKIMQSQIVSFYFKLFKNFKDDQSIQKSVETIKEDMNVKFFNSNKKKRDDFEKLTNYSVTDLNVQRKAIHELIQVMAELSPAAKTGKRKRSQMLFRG
PROTOCOL DETAILS: filter; biphasic 1.8/750 nM
CONDITION SET: tags: Genzyme (Cambridge MA); Upstate Biotechnology for early SELEX rounds; chain copies: 2 inferred
MEASUREMENT KIND: pKd
pKd is a log-scale quantity: -log10 of the concentration expressed in molar.

# get_value(readout='pKd', item= IFN-gamma 2'NH2-17 (ssRNA, 2'-NH2 all C and U) RNA: GGGAGGACGAUGCGGUGGUAGCGCGAUAUAGCGCUGGUAGGGUUGCCGGUGAUCAGACGACUCGCCCGA ) 8.74

Where these numbers come from: patent US5972599
